Test: in vivo
Conditions: BALB/c nude, mouse, in vivo, iv, total radioactivity, uptake Stomach
Description: To a 0.5 M NaOAc buffer (20-50 μL, pH=4.5) was added 4 μL of exemplary or comparator compound in DMSO stock solution (2000 μM) and 2 mCi ^177Lu (ITM Isotope Technologies Munich), the resulting mixture was heated to 95° C. for 15 min. The resulting product was analyzed by radio-TLC and radio-HPLC (column: Shim-pack GIST 5 μm 4.6*150 mm; buffer A: 0.2% formic acid H2O; buffer B: 0.1% formic acid acetonitrile; flow rate: 1 mL/min; gradient: 0-5 min: 10% B to 95% B; then 5-8 min: 95% B). […]
experimentalEndpoint: tissue uptake at 24 h (%ID/g)
Entry rule: numbers only, all in %ID/g.

Given C[C@@H](O)[C@H](NC(=O)[C@@H]1CSSC[C@H](NC(=O)[C@@H](Cc2ccccc2)NC(=O)CC[C@H](NC(=O)[C@H](CCCCNC(=O)CC[C@H](NC(=O)CNC(=O)c2cccc(NC(=O)N[C@@H]3CN(C4CCCCC4)c4ccccc4N(CC(=O)C(C)(C)C)C3=O)c2)C(=O)O)NC(=O)CC[C@H](NC(=O)CN2CCN(CC(=O)O)CCN(CC(=O)O)CCN(CC(=O)O)CC2)C(=O)O)C(=O)O)C(=O)N[C@@H](Cc2ccc(O)cc2)C(=O)N[C@H](Cc2c[nH]c3ccccc23)C(=O)N[C@@H](CCCCN)C(=O)N[C@@H]([C@@H](C)O)C(=O)N1)C(=O)O , state its recorded tissue uptake at 24 h.
3.22

Moving on to the next molecule: C[C@@H](O)[C@H](NC(=O)[C@@H]1CSSC[C@H](NC(=O)[C@@H](Cc2ccccc2)NC(=O)CCOCCOCCOCCNC(=O)[C@H](CCCCNC(=O)c2cccc(NC(=O)N[C@@H]3CN(C4CCCCC4)c4ccccc4N(CC(=O)C(C)(C)C)C3=O)c2)NC(=O)CN2CCN(CC(=O)O)CCN(CC(=O)O)CCN(CC(=O)O)CC2)C(=O)N[C@@H](Cc2ccc(O)cc2)C(=O)N[C@H](Cc2c[nH]c3ccccc23)C(=O)N[C@@H](CCCCN)C(=O)N[C@@H]([C@@H](C)O)C(=O)N1)C(=O)O [Compound I-38, DOTA-K(Z360)-PEG3-f[CYwKTC]T-OH]
3.4

Moving on to the next molecule: C[C@@H](O)[C@H](NC(=O)[C@@H]1CSSC[C@H](NC(=O)[C@@H](Cc2ccccc2)NC(=O)CNC(=O)COCCOCCNC(=O)[C@H](CCCCNC(=O)c2cccc(NC(=O)N[C@@H]3CN(C4CCCCC4)c4ccccc4N(CC(=O)C(C)(C)C)C3=O)c2)NC(=O)CN2CCN(CC(=O)O)CCN(CC(=O)O)CCN(CC(=O)O)CC2)C(=O)N[C@@H](Cc2ccc(O)cc2)C(=O)N[C@H](Cc2c[nH]c3ccccc23)C(=O)N[C@@H](CCCCN)C(=O)N[C@@H]([C@@H](C)O)C(=O)N1)C(=O)O [Compound I-53, DOTA-K(Z360)-OEG-G-f[CYwKTC]T-OH]
3.36
